# target or system: Luciferin 4-monooxygenase (Photinus pyralis)
# method notes: inhibition of purified Photinus pyralis luciferase – biochemical, luminescence, purified enzyme, 2006 set, primary screen (AID 1141);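 further: cell-free assay with purified firefly luciferase at 100 ng per well in PBS; test concentration not given here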
# experimental context: purified firefly luciferase, SteadyGlo luminescence, 30 min; higher = more signal, called active from +8 up or from −8 down
z-score below -0.3 gives label 0; z-score at or above it gives label 1.

Enquiry: Is z-score for `CCCC=C(CCC)[C@@H](NS(=O)(=O)c1ccc(Cl)cc1)c1ccc(C(=O)OC)cc1` at or above -0.3?
Return: label 1

Enquiry: Is z-score for `[N-]=[N+]=Nc1ccccc1[C@H]1OC(c2ccc(OCCCO)cc2)=N[C@@]1(CCS(=O)(=O)c1ccccc1)C(=O)NCc1ccccc1` at or above -0.3?
Return: label 0

Enquiry: Is z-score for `COCCCNC(=O)[C@@H]1c2ccccc2C(=O)N(Cc2ccccc2OC)[C@H]1c1ccc(CO)cc1` at or above -0.3?
Return: label 1

Enquiry: Is z-score for `COC(=O)C(CC#Cc1ccc2c(c1)[C@]1(C(=O)N2)[C@H](c2ccccc2OCCO)N2[C@H](c3ccccc3)[C@H](c3ccccc3)OC(=O)[C@H]2[C@@H]1C(N)=O)C(=O)OC` at or above -0.3?
Return: label 0

Enquiry: Is z-score for `C=CC[C@]1(C(=O)N2CCOCC2)N=C(c2ccc(OCCCO)cc2)O[C@H]1c1ccccc1N=[N+]=[N-]` at or above -0.3?
Return: label 0

Enquiry: Is z-score for CCCCN1CC=CC23O[C@@H]4C=CCOC(=O)[C@@H]4[C@H]2C(=O)N(CCCCCCO)[C@@H]3C1=O (stereo not given in full) at or above -0.3?
Return: label 0

Enquiry: Is z-score for O=C1C2C=CC(C(O)c3ccc(-c4ccccc4)s3)N(Nc3ccccc3)C2C(=O)N1c1ccccc1 (stereo not given) at or above -0.3?
Return: label 1

Enquiry: Is z-score for O=C1NC(=O)C2C1C=CC(C(O)C1CC=CCC1)N2Nc1ccccn1 (stereo not given) at or above -0.3?
Return: label 0

Enquiry: Is z-score for `[N-]=[N+]=Nc1ccccc1[C@H]1OC(c2ccc(OCCCO)cc2)=N[C@@]1(Cc1ccccc1)C(=O)N1CCOCC1` at or above -0.3?
Return: label 0

Enquiry: Is z-score for `CC(C)NC(=O)[C@@H]1c2ccccc2C(=O)N(C(C)C)[C@H]1c1ccc(CO)cc1` at or above -0.3?
Return: label 0

Enquiry: Is z-score for `CO[C@H]1O[C@H](CO)[C@@H](OC(=O)Nc2ccccc2)[C@@H]2OC(=O)[C@@H](Cc3ccc4ccccc4c3)C/C=C/C[C@H](Cc3ccc4ccccc4c3)C(=O)O[C@@H]12` at or above -0.3?
Return: label 0

Enquiry: Is z-score for `COCCOC(=O)N1C(=O)[C@@]2(c3ccccc31)[C@H](C(=O)N1CCCCCCC1)[C@H]1C(=O)O[C@H](c3ccccc3)[C@H](c3ccccc3)N1[C@@H]2c1ccc(OCCO)cc1` at or above -0.3?
Return: label 1

Enquiry: Is z-score for CC(C)N1CC=CC23O[C@@H]4C=CCOC(=O)[C@@H]4[C@H]2C(=O)N(CCCCCO)[C@@H]3C1=O (stereo not given in full) at or above -0.3?
Return: label 0

Enquiry: Is z-score for `COC(=O)C[C@H]1O[C@@H](CCc2ccccc2)[C@@H](C)[C@@H]1[Si](C)(C)c1ccc(OC)cc1` at or above -0.3?
Return: label 1

Enquiry: Is z-score for CN1C(=O)C2C=CC(C(O)c3c(F)cccc3Cl)N(NC(=O)OC(C)(C)C)C2C1=O (stereo not given) at or above -0.3?
Return: label 1

----------
Provide the recorded composite z-score for the entries that follow.
# Test system: Human papillomavirus type 1a protein E7 (residues 44-93)
# method notes: small molecules binding HPV E7 44-93 – biochemical, small-molecule microarray, residues 44-93, 635 nm fluorescence, primary screen (AID 1108);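 further: E7 fragment applied at 1 µg/mL in TBST for 1 h at 4 C; score combines spot fluorescence with its signal to noise ratio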
# experimental context: fluorescence 635 nm, higher = more signal
The reply should be a number, written without any unit.

Enquiry: If you can, please state the reported composite z-score value of O=C1NC(=O)C2C1C=CC(C(O)C1CC=CCC1)N2Nc1ccccn1 (centres undefined) .
Return: -0.643

Enquiry: If you can, please state the reported composite z-score value of CC(C)CCC[C@@H](C)[C@H]1CC[C@@]2(C)C3=C(CC[C@]12C)[C@@]1(C)CC[C@H](OC(=O)c2ccc(C(F)(F)F)nc2)C(C)(C)C1CC3 (some centres undefined) .
Return: 0.592

Enquiry: If you can, please state the reported composite z-score value of `Cc1ccc(S[C@]2(C(=O)O)CC(=O)N(C(C)C)[C@@H]2c2ccc(CO)cc2)cc1` .
Return: 0.253

Enquiry: If you can, please state the reported composite z-score value of `COc1ccc(C(=O)Nc2ccc(CN3C(=O)[C@]4(O[C@H](CC(=O)N5CCC[C@H]5CO)[C@@H]([Si](C)(C)c5ccc(OC)cc5)[C@@H]4C)c4ccccc43)cc2)cc1` .
Return: 1.4

Enquiry: If you can, please state the reported composite z-score value of O=C(O)C1N=C(c2ccc(OCCCO)cc2)N(c2ccccc2)O1 (centres undefined) .
Return: 1.13

Enquiry: If you can, please state the reported composite z-score value of `COCCOC(=O)N1C(=O)[C@@]2(c3ccccc31)[C@H](C(N)=O)[C@H]1C(=O)O[C@H](c3ccccc3)[C@H](c3ccccc3)N1[C@@H]2c1ccc(O)cc1` .
Return: 1.37

Enquiry: If you can, please state the reported composite z-score value of `COC(=O)[C@@]1(Cc2ccc(F)cc2)[C@H]2c3cc(C(=O)N(C)C)n(Cc4cc(C)n(C)n4)c3C[C@H]2CN1C(=O)c1ccccc1` .
Return: 0.923

Enquiry: If you can, please state the reported composite z-score value of `COC(=O)[C@@]1(Cc2ccccc2)[C@H]2c3cc(C(=O)N(C)C)n(CCc4c[nH]c5ccc(O)cc45)c3C[C@H]2CN1C(=O)c1ccccc1` .
Return: 1.32

Enquiry: If you can, please state the reported composite z-score value of COc1ccc(C(O)C2C=CC3C(=O)N(C)C(=O)C3N2NC(=O)OC(C)(C)C)c2ccccc12 (centres undefined) .
Return: 1.5

Enquiry: If you can, please state the reported composite z-score value of CCCCN1CC=CC23O[C@@H]4C=CCOC(=O)[C@@H]4[C@H]2C(=O)N(CCCCCCO)[C@@H]3C1=O (some centres undefined) .
Return: -0.477

Enquiry: If you can, please state the reported composite z-score value of CC1CC/C=C\[C@H]2OC34C=CCN(Cc5ccccc5)C(=O)[C@H]3N(C(C)CO)C(=O)[C@@H]4C2C(=O)O1 (some centres undefined) .
Return: -1.75

Enquiry: If you can, please state the reported composite z-score value of `COc1ccc([Si](C)(C)[C@@H]2[C@@H](CCO)O[C@]3(C(=O)N(Cc4cccc(N5CCOC5=O)c4)c4ccccc43)[C@H]2C)cc1` .
Return: 0.542

Enquiry: If you can, please state the reported composite z-score value of `COCCOC(=O)N1C(=O)[C@@]2(c3cc(C#CCCO)ccc31)[C@H](c1ccc(O)cc1)N1[C@H](c3ccccc3)[C@H](c3ccccc3)OC(=O)[C@H]1[C@@H]2C(=O)N1CCN(c2ncccn2)CC1` .
Return: 1.17

Enquiry: If you can, please state the reported composite z-score value of `O=C(O)[C@H](Cc1ccccc1)n1cc(-c2ccccc2)nn1` .
Return: 0.52

Enquiry: If you can, please state the reported composite z-score value of `NCCCCCNC(=O)[C@H]1C[C@H]2C(=O)N[C@@H](Cc3ccccc3)C(=O)N2[C@H]1c1cccc(OCCO)c1` .
Return: 0.509

Enquiry: If you can, please state the reported composite z-score value of `COCCOC(=O)N1C(=O)[C@@]2(c3cc(C#CC4(O)CCCCCC4)ccc31)[C@H](c1ccccc1OCCO)N1[C@H](c3ccccc3)[C@H](c3ccccc3)OC(=O)[C@H]1[C@@H]2C(=O)N1CCc2cc(OC)c(OC)cc2C1` .
Return: 1.43

Enquiry: If you can, please state the reported composite z-score value of `COCCCNC(=O)[C@]1(Cc2ccccc2)N=C(c2ccc(OCCCO)cc2)O[C@@H]1c1ccccc1CN=[N+]=[N-]` .
Return: 0.128

Enquiry: If you can, please state the reported composite z-score value of `COC(=O)[C@]1(CCC(=O)OC(C)(C)C)N=C(c2ccc(OCCCO)cc2)O[C@@H]1c1ccccc1` .
Return: 0.529

Enquiry: If you can, please state the reported composite z-score value of `COCCCNC(=O)[C@@H]1c2ccccc2C(=O)N(Cc2ccccc2OC)[C@H]1c1ccc(CO)cc1` .
Return: 0.889

Enquiry: If you can, please state the reported composite z-score value of `CCCC[C@H]1C[C@@H]1[C@@H]1N(P(=O)(c2ccccc2)c2ccccc2)C[C@@](O)(c2ccccc2)CC12CC2` .
Return: 0.713

Enquiry: If you can, please state the reported composite z-score value of CC=CC(O)C1C=CC2C(=O)N(C)C(=O)C2N1N(c1ccccc1)c1ccccc1 (centres undefined) .
Return: -1.28

Enquiry: If you can, please state the reported composite z-score value of `C[N+](C)(C)CCCCCCNC(=O)[C@H]1C[C@H]2C(=O)N[C@@H](Cc3ccccc3)C(=O)N2[C@H]1c1cccc(OCCO)c1` .
Return: 0.658

Enquiry: If you can, please state the reported composite z-score value of O=C1OCCC/C=C\[C@H]2OC34C=CCN(c5ccc6ccccc6c5)C(=O)[C@H]3N(CCCCCO)C(=O)[C@@H]4C12 (some centres undefined) .
Return: -2.53

Enquiry: If you can, please state the reported composite z-score value of CC1CC/C=C\[C@H]2OC34C=CCN(Cn5nnc6ccccc65)C(=O)[C@H]3N(CCCCCO)C(=O)[C@@H]4C2C(=O)O1 (some centres undefined) .
Return: -1.05

Enquiry: If you can, please state the reported composite z-score value of `COc1cc(CO)cc(I)c1O[C@H]1C=C(C(=O)NCCO)C[C@@H](NC[C@@H]2CCCO2)[C@@H]1O` .
Return: 1.33

Enquiry: If you can, please state the reported composite z-score value of `[N-]=[N+]=Nc1ccccc1C[C@@]1(C(=O)N2CCCCC2)N=C(c2ccc(OCCCO)cc2)O[C@@H]1c1ccccc1` .
Return: -0.108

Enquiry: If you can, please state the reported composite z-score value of `COc1ccc([Si](C)(C)[C@H]2[C@H](CCO)O[C@@]3(C(=O)N(Cc4ccccc4)c4ccc(N5CCCCC5=O)cc43)[C@@H]2C)cc1` .
Return: 0.668

Enquiry: If you can, please state the reported composite z-score value of `COCCCNC(=O)[C@@]1(Cc2ccccc2CN=[N+]=[N-])N=C(c2ccc(OCCCO)cc2)O[C@H]1c1ccccc1CN=[N+]=[N-]` .
Return: 1.37

Enquiry: If you can, please state the reported composite z-score value of `COc1ccc([Si](C)(C)[C@@H]2[C@@H](CC(=O)N3CCC[C@H]3CO)O[C@]3(C(=O)N(Cc4cccc(I)c4)c4ccccc43)[C@H]2C)cc1` .
Return: 1.32
